biological target: SIRT3 (Homo sapiens); construct: amino acid residues 102-399 of human SIRT3 with an N-terminal His-tag; His-tag (N); made in house; host or cells: E. coli; experiment: Fluorescence polarization assay, SIRT3 deacetylation of Histone H4-based peptide substrate; format: biochemical; conditions: activation of SIRT3; read-out: ED50 for activation of SIRT3
pEC50: −log10 of the molar value.
Measured attribute: pEC50

Notebook: Oc1ccc(C=Cc2cc(O)cc(O)c2)cc1 [resveratrol, reference compound] , pEC50 read as < 3.52

###

Target: SIRT3 (Homo sapiens, UniProt Q9NTG7)
Sequence (Q9NTG7 102-399): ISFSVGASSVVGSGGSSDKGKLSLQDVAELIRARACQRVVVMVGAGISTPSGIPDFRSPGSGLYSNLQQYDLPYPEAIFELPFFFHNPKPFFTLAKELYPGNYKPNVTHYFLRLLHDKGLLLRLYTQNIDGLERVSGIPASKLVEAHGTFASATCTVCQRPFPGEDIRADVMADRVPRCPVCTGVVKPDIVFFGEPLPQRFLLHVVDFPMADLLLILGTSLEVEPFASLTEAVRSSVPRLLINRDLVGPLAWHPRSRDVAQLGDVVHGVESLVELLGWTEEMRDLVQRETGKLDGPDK
Measured attribute: IC50

Notebook: CC(=O)Nc1ccc(Nc2cc(C)nc3c(C)cccc23)cc1 , IC50 read as 101 to 150 µM

###

For each entry below, report its IC50 value.

GET /values?item= Cc1cc(C)nc(Nc2c3ccccc3nc3ccccc23)c1 &system= SIRT1 (Homo sapiens, UniProt Q96EB6) returns IC50: > 150 µM

GET /values?item= O=C(NNc1c2c(nc3ccccc13)CCCC2)c1ccccn1 &system= SIRT1 (Homo sapiens, UniProt Q96EB6) returns IC50: < 50 µM

GET /values?item= COc1cc(C(=O)NNC(=O)c2c3ccccc3nc3ccccc23)cc(OC)c1OC &system= SIRT1 (Homo sapiens, UniProt Q96EB6) returns IC50: < 50 µM

GET /values?item= Cc1nc(-c2cccc(NC(=O)c3c4ccccc4nc4ccccc34)c2)cs1 &system= SIRT1 (Homo sapiens, UniProt Q96EB6) returns IC50: > 150 µM

GET /values?item= COc1ccccc1NC(=O)Nc1c2c(nc3ccccc13)CCCC2 &system= SIRT1 (Homo sapiens, UniProt Q96EB6) returns IC50: > 150 µM

###

Target: UniProt Q96EB6
Sequence (Q96EB6 1-747): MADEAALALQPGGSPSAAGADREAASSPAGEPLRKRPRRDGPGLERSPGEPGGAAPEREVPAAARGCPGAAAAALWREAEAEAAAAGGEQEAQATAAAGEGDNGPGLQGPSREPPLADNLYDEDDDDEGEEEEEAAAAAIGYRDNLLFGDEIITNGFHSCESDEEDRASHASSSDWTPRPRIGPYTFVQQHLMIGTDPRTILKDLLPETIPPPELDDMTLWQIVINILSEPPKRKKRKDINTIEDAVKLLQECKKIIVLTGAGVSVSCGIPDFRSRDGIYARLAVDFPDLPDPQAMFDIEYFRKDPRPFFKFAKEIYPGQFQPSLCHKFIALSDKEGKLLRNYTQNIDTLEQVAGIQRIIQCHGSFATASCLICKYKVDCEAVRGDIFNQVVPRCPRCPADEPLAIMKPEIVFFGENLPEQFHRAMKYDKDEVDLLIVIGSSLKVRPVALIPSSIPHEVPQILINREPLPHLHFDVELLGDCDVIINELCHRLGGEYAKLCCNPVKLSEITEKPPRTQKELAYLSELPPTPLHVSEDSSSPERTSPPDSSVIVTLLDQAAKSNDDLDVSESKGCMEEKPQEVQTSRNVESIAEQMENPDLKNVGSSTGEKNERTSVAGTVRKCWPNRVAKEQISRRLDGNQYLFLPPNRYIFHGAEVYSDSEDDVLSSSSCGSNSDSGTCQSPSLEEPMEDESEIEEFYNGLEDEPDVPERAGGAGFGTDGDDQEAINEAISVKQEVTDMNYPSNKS
Assay: Fluorescence polarization assay, SIRT1 deacetylation of p53-based peptide substrate
Settings: activation of SIRT1; compounds 1-18 with peptide 1 (MR121), compounds 19-56 with peptide 2 (5TMR); read-out: ED50 (the source's name)
For each entry below, report its EC50 value.

Notebook: O=C(NCCN1CCOCC1)c1cc(-c2cccs2)nc2ccc(F)cc12 , EC50 read as 101 to 150 µM

Notebook: Cc1ccc2nc(-c3ccccc3)cc(C(=O)NCCN3CCOCC3)c2c1 , EC50 read as 51 to 100 µM

Notebook: O=C(NCCN1CCOCC1)c1cc(-c2cccs2)nc2ccccc12 , EC50 read as 101 to 150 µM

Notebook: O=C(NNc1c2ccccc2nc2ccccc12)c1ccccn1 , EC50 read as 51 to 100 µM

Notebook: FC(F)(F)c1ccnc(NNc2c3ccccc3nc3ccccc23)n1 , EC50 read as 101 to 150 µM

###

For each entry below, report its EC50 value.
Target: SIRT3 (Homo sapiens)
Construct: amino acid residues 102-399 of human SIRT3 with an N-terminal His-tag; His-tag (N); made in house; host or cells: E. coli
Sequence (Q9NTG7 102-399): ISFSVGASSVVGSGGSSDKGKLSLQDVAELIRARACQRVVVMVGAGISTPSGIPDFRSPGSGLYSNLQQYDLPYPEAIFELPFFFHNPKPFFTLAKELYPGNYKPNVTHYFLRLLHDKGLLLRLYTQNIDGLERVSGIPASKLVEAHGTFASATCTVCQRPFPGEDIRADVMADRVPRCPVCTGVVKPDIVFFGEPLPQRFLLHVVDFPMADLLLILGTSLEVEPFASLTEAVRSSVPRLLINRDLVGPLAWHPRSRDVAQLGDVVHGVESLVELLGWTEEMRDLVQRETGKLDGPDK
Test: Fluorescence polarization assay, SIRT3 deacetylation of Histone H4-based peptide substrate
Assay type: biochemical
Settings: read-out: ED50 (the source's name)

Notebook: O=C(NNc1c2ccccc2nc2ccccc12)c1cccnc1 , EC50 read as 51 to 100 µM

Notebook: O=C(NCc1ccncc1)c1cc(-c2ccsc2)nc2ccccc12 , EC50 read as 51 to 100 µM

Notebook: O=C(O)c1c(O)c(-c2ccccc2)nc2ccccc12 , EC50 read as 51 to 100 µM
